System: mouse carcinogenicity bioassay, TD50 from CPDB
test.description: DSSTox (CPDBAS) Carcinogenic Potency Database Summary Mouse Bioassay Results
condition.notes: TD50_Mouse_Note: TD50 is harmonic mean of more than one positive test; TargetSites_Mouse_Female: ear Zymbals gland; harderian gland; liver; vascular system
property.measured: Potency

Potency lookup needed for "[O-]/[N+](=N\O)c1ccccc1" , thanks.
3.77 mmol/kg/day

---

I'd appreciate it if you could supply Potency values for the items below.
System: mouse carcinogenicity bioassay, TD50 from CPDB
test.description: DSSTox (CPDBAS) Carcinogenic Potency Database Summary Mouse Bioassay Results
condition.notes: TD50_Mouse_Note: TD50 is harmonic mean of more than one positive test; TargetSites_Mouse_Female: liver; stomach

I have this compound here, "CC(=O)OCc1ccccc1" , and I need its recorded Potency.
9.59 mmol/kg/day

Now consider "c1ccc2c(c1)[nH]c1ccccc12" and answer again.
0.981 mmol/kg/day

Also "O=C(O)c1cc(Oc2ccc(C(F)(F)F)cc2Cl)ccc1[N+](=O)[O-]" ?
0.39 mmol/kg/day

// repeat for "CC(=O)O[C@]1(C(C)=O)CC[C@H]2[C@@H]3C=C(Cl)C4=CC(=O)[C@@H]5C[C@@H]5[C@]4(C)[C@H]3CC[C@@]21C" and report
0.0525 mmol/kg/day

---

System: mouse carcinogenicity bioassay, TD50 from CPDB
test.description: DSSTox (CPDBAS) Carcinogenic Potency Database Summary Mouse Bioassay Results
condition.notes: TD50_Mouse_Note: TD50 is harmonic mean of more than one positive test; TargetSites_Mouse_Female: lung
property.measured: Potency

Record request: Potency value, item "CC(C)CON=O"
3.01 mmol/kg/day

Moving on to "CNN"
0.0189 mmol/kg/day

Now consider "CC(=O)NNC(=O)c1ccncc1" .
1.84 mmol/kg/day

Another molecule to look at: "NC(=O)NNc1ccccc1"
1.09 mmol/kg/day

Same read-out for "C=C1C/C(=C/C)C(=O)O[C@@H]2CCN3CC=C(COC(=O)[C@@]1(O)CO)[C@H]23" ?
0.00564 mmol/kg/day

Then "N#[N+]c1ccccc1" ?
0.0712 mmol/kg/day

Would you mind doing "NN" as well?
0.0914 mmol/kg/day

Please do the same for "CCCCNN" as well.
0.0971 mmol/kg/day

Same question, "CCCc1ccc2c(c1)OCO2" this time
0.761 mmol/kg/day

What do you have for "O=CNNC=O" ?
7.59 mmol/kg/day

Queued: "O=[O+][O-]"
0.0392 mmol/kg/day

Likewise for "O.O.O.O.O.O.O.O=S(=O)([O-])[O-].[Co+2]" ?
0.00269 mmol/kg/day

# repeat for "NNC(=O)c1cccnc1"
1.66 mmol/kg/day

And for CC(CCl)OC(C)CCl (centres undefined) ?
1.12 mmol/kg/day

One more molecule: "Clc1ccc(C(c2ccc(Cl)cc2)C(Cl)Cl)cc1"
0.0959 mmol/kg/day

Likewise for "C=Cc1ccccc1" ?
2.02 mmol/kg/day

"CC(=O)NN" ?
0.133 mmol/kg/day

Another molecule to check: "C=CCNNCC=C"
0.183 mmol/kg/day

Next up: "CCCNN"
0.411 mmol/kg/day

---

Test system: mouse carcinogenicity bioassay, TD50 from CPDB
test.description: DSSTox (CPDBAS) Carcinogenic Potency Database Summary Mouse Bioassay Results
condition.notes: TD50_Mouse_Note: TD50 is harmonic mean of more than one positive test; TargetSites_Mouse_Female: kidney; stomach
property.measured: Potency

What measured Potency is associated with "O=C(O)/C=C/c1ccc(O)c(O)c1" on mouse carcinogenicity bioassay, TD50 from CPDB?
27.2 mmol/kg/day

---

Record form. Attribute: Potency. Fill in for each entry.
System: mouse carcinogenicity bioassay, TD50 from CPDB
test.description: DSSTox (CPDBAS) Carcinogenic Potency Database Summary Mouse Bioassay Results
condition.notes: TD50_Mouse_Note: TD50 value is overestimated as upper 99% confidence limit from study with 100% tumor incidence but no lifetable; harmoni

# query: Potency of entry ClC1C(Cl)C(Cl)C(Cl)C(Cl)C1Cl (stereo not drawn)
0.0228 mmol/kg/day

What do you have for "Nc1ccc(-c2ccc(N)c(Cl)c2)cc1Cl" ?
0.0377 mmol/kg/day

Note, next up: "Cc1cccc(Nc2cc(Cl)nc(SCC(=O)O)n2)c1C"
0.0334 mmol/kg/day

---

Test system: mouse carcinogenicity bioassay, TD50 from CPDB
test.description: DSSTox (CPDBAS) Carcinogenic Potency Database Summary Mouse Bioassay Results
condition.notes: TD50_Mouse_Note: TD50 is harmonic mean of more than one positive test; TargetSites_Mouse_Female: lung; vascular system
From the text: The Carcinogenic Potency Database (CPDB) is a unique and widely used international resource of the results of over 6500 chronic, long-term animal cancer tests on over 1500 chemical substances. The CPDB provides easy access to the bioassay literature, with qualitative and quantitative analyses of both positive and negative experiments that have been published over the past 50 years in the general literature and by the National Cancer Institute/National Toxicology Program. […]
property.measured: Potency

So what's the measured Potency for this one? "CCNN"
0.0679 mmol/kg/day

Let us now turn to "CC(=O)NNc1ccc(CO)cc1"
1.34 mmol/kg/day

Moving on to the next compound: "CN(C)NC(=O)CCC(=O)O"
6.43 mmol/kg/day

Would you kindly repeat that for "NNC(N)=O" ?
2 mmol/kg/day

Thanks! And "CCN(N)C=O" ?
0.0318 mmol/kg/day

Can you check "C=CCNN" next?
0.315 mmol/kg/day

Also "CN(C)N" ?
0.0659 mmol/kg/day

Now the same for "COC(=O)C1=CCCN(C)C1"
0.206 mmol/kg/day

---

Test system: mouse carcinogenicity bioassay, TD50 from CPDB
test.description: DSSTox (CPDBAS) Carcinogenic Potency Database Summary Mouse Bioassay Results
condition.notes: TargetSites_Mouse_Female: mammary gland
property.measured: Potency

Potency lookup needed for "NS(=O)(=O)c1cc(C(=O)O)c(NCc2ccco2)cc1Cl" , thanks.
2.21 mmol/kg/day

---

Tested on: mouse carcinogenicity bioassay, TD50 from CPDB
test.description: DSSTox (CPDBAS) Carcinogenic Potency Database Summary Mouse Bioassay Results
condition.notes: TD50_Mouse_Note: TD50 is harmonic mean of more than one positive test; TargetSites_Mouse_Female: peritoneal cavity
property.measured: Potency

For "ClCOCCl" , what is its reported Potency?
0.00158 mmol/kg/day

---

Test system: mouse carcinogenicity bioassay, TD50 from CPDB
test.description: DSSTox (CPDBAS) Carcinogenic Potency Database Summary Mouse Bioassay Results
condition.notes: TD50_Mouse_Note: TD50 is harmonic mean of more than one positive test; TargetSites_Mouse_Female: lung; nasal cavity; stomach
property.measured: Potency

Need Potency of ClCC(Br)CBr (stereo unspecified) , thanks.
0.0115 mmol/kg/day

---

System: mouse carcinogenicity bioassay, TD50 from CPDB
test.description: DSSTox (CPDBAS) Carcinogenic Potency Database Summary Mouse Bioassay Results
condition.notes: TD50_Mouse_Note: TD50 is harmonic mean of more than one positive test; TargetSites_Mouse_Female: liver; vascular system
Could you please report measured Potency for the items listed next?

Entry under review: "Cc1ccc([N+](=O)[O-])cc1N" . Reported Potency?
1.82 mmol/kg/day

Please answer likewise for "O=C1c2ccccc2CN2C(=O)c3ccccc3CN12"
3.27 mmol/kg/day

Same read-out for "Cc1cc2c(nc1N)[nH]c1ccccc12" ?
0.0863 mmol/kg/day

And for "Cc1ccccc1N" ?
5.85 mmol/kg/day

// query: "Cc1ccc(Cl)cc1N"
1.38 mmol/kg/day

Same question, "Nc1ccc2nc3ccccn3c2n1" this time
0.0869 mmol/kg/day

How about this compound: "Cc1cccn2c1nc1ccc(N)nc12"
0.0272 mmol/kg/day

// repeat for "Nc1ccc2c(n1)[nH]c1ccccc12" and report
0.272 mmol/kg/day

---

Test system: mouse carcinogenicity bioassay, TD50 from CPDB
test.description: DSSTox (CPDBAS) Carcinogenic Potency Database Summary Mouse Bioassay Results
condition.notes: TD50_Mouse_Note: TD50 is harmonic mean of more than one positive test; TargetSites_Mouse_Female: liver; lung; thyroid gland
property.measured: Potency

Quick one: Potency for "Nc1cccc2c(N)cccc12" ?
1.02 mmol/kg/day

---

Tested on: mouse carcinogenicity bioassay, TD50 from CPDB
test.description: DSSTox (CPDBAS) Carcinogenic Potency Database Summary Mouse Bioassay Results
condition.notes: TD50_Mouse_Note: TD50 is harmonic mean of more than one positive test; TargetSites_Mouse_Female: lung; nervous system
property.measured: Potency

Could you tell me which Potency is on file for "CN(C)N=O" ?
0.00255 mmol/kg/day

---

Test system: mouse carcinogenicity bioassay, TD50 from CPDB
test.description: DSSTox (CPDBAS) Carcinogenic Potency Database Summary Mouse Bioassay Results
condition.notes: TD50_Mouse_Note: no positive results; TargetSites_Mouse_Female: no positive results
Activity calls are given as the source filed them.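 How the source made its calls: active means a tumour-causing dose and a tumour site recorded for mice in at least one sex group; inconclusive means only government mouse studies exist and were judged inadequate; inactive means mouse studies exist but none gave tumours.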
property.measured: outcome

Recorded outcome of "[Cd+2].[Cl-].[Cl-]" , please.
inactive

Now consider "CCOC(=O)CBr" .
inactive

Also "O=[N+]([O-])c1ccc(O)c([N+](=O)[O-])c1" , if possible.
inactive
